Test: clinical
Conditions: human, in vivo, AUC(0-24) Median

chemSmiles | AUC(0-t)
C[C@@H]1CCN(C(=O)CC#N)C[C@@H]1N(C)c1ncnc2[nH]ccc12 | 3.14 ng·h/mL

---

Assay: Visual solubility evaluation of Fingolimod free base
Assay type: physicochemical
Conditions: organic solvent or mixture, thermodynamic from solid; Ethanol; visual, RT

chemSmiles | solubility
CCCCCCCCc1ccc(CCC(N)(CO)CO)cc1 | > 20 mg/mL

---

Experiment: Visual solubility evaluation of Fingolimod free base
Format: physicochemical
Conditions: organic solvent or mixture, thermodynamic from solid; Methanol; visual, RT

chemSmiles | solubility
CCCCCCCCc1ccc(CCC(N)(CO)CO)cc1 | > 20 mg/mL

---

Test: clinical
Details: human, in vivo, Tmax Median

chemSmiles | Tmax, h
C[C@@H]1CCN(C(=O)CC#N)C[C@@H]1N(C)c1ncnc2[nH]ccc12 | 6

---

Test: Visual solubility evaluation of Fingolimod free base
Type: physicochemical
Details: organic solvent or mixture, thermodynamic from solid; Toluene; visual, RT
metric: solubility

chemSmiles | metric | reportedResult
CCCCCCCCc1ccc(CCC(N)(CO)CO)cc1 | solubility | < 1700 µg/mL

---

Assay: clinical
Details: human, in vivo, Tmax Geomean

molecule | Tmax
C[C@@H]1CCN(C(=O)CC#N)C[C@@H]1N(C)c1ncnc2[nH]ccc12 [tofacitinib] | 5.05 h

---

Experiment: clinical
Conditions: human, in vivo, AUC(0-12) Median
metric: AUC(0-t) (ng·h/mL)

compound | unitOfMeasure | reportedResult
C[C@@H]1CCN(C(=O)CC#N)C[C@@H]1N(C)c1ncnc2[nH]ccc12 [tofacitinib] | ng·h/mL | 1.97

---

Experiment: clinical
Conditions: human, in vivo, AUC(0-24) Geomean
metric: AUC(0-t) (ng·h/mL)

compound | metric | unitOfMeasure | reportedResult
C[C@@H]1CCN(C(=O)CC#N)C[C@@H]1N(C)c1ncnc2[nH]ccc12 [tofacitinib] | AUC(0-t) | ng·h/mL | 3.21
